Documented CC50 at 48 h across a set of compounds
assay: Cytotoxicity against HEK293T cells assessed as inhibition of cell growth measured after 48 hrs by CCK8 assay; assay type: toxicity, cell-based, HEK-293T; conditions: human

| compound | CC50 at 48 h |
| --- | --- |
| CC(C)(C)OC(=O)N[C@@H](Cc1c[nH]c2ccccc12)C(=O)Nc1nc(N)ccc1/N=N/c1ccccc1 | 79.2 µM |
| Nc1ccc(/N=N/c2ccc(Cl)cc2)c(N)n1 | > 100 µM |
| Cl.Nc1ccc(/N=N/c2ccccc2)c(N)n1 [PHENAZOPYRIDINE HYDROCHLORIDE] | > 100 µM |
| Nc1ccc(/N=N/c2ccccc2)c(NC(=O)[C@@H](N)Cc2c[nH]c3ccccc23)n1 | 81.9 µM |
| CSCC[C@H](NC(=O)OC(C)(C)C)C(=O)Nc1nc(N)ccc1/N=N/c1ccccc1 | > 100 µM |
| Nc1ccc(/N=N/c2ccc(OCc3ccccc3)cc2)c(N)n1 | > 100 µM |
| Nc1ccc(/N=N/c2ccc(Br)cc2)c(N)n1 | > 100 µM |
| Nc1cc(-c2ccccc2)c(/N=N/c2ccccc2)c(N)n1 | > 100 µM |
